Below, each entry is listed alongside its reported half-life at 2 µM.
# ASSAY COMMENT: in vitro
# PARTICULARS: beagle, dog, plasma, pH 7.4
Report the figure in h without appending any unit label.

COMPOUND	RESULT UNIT	half-life at 2 µM
CC(C)[N+](C)(CCOC(=O)C1c2ccccc2Oc2ccccc21)C(C)C [Propantheline, propantheline]	h	4.1

Below: the item to evaluate.
Which half-life at 2 µM value is on record for CC[C@H](C)C(=O)O[C@H]1C[C@@H](C)C=C2C=C[C@H](C)[C@H](CC[C@@H]3C[C@@H](O)CC(=O)O3)[C@H]21 [Lovastatin, lovastatin] ? 7.42
